Test: NCI Yeast Anticancer Drug Screen. Data for the bub3 strain (AID 167)
Settings: S. cerevisiae bub3 mutant strain, at 50.0 µM, active compounds read high
About 79,000 compounds went through this panel and 15% of them were active in at least one assay; those are over-represented in the sample as a whole.
ATTRIBUTE_MEASURED: growth inhibition (%)
Answer format: numeric, % implied, no suffix.

Asked: Request the reported growth inhibition associated with c1cc2c(cc1CCCCCCCCCCc1ccc3c(c1)CCC3)CCC2
Given back: 2.95

Asked: Request the reported growth inhibition associated with C[n+]1c(-c2cccc(OCCCCCCCCCCOc3cccc(-c4c5cc(N)ccc5c5ccc(N)cc5[n+]4C)c3)c2)c2cc(N)ccc2c2ccc(N)cc21
Given back: 84.2

Asked: Request the reported growth inhibition associated with COC(=O)c1ccccc1C=C(c1ccc([N+](=O)[O-])cc1)c1ccc([N+](=O)[O-])cc1
Given back: 94.6
